Target: Human opiate κ receptors (Homo sapiens, UniProt P41145)
Sequence (P41145 whole entry): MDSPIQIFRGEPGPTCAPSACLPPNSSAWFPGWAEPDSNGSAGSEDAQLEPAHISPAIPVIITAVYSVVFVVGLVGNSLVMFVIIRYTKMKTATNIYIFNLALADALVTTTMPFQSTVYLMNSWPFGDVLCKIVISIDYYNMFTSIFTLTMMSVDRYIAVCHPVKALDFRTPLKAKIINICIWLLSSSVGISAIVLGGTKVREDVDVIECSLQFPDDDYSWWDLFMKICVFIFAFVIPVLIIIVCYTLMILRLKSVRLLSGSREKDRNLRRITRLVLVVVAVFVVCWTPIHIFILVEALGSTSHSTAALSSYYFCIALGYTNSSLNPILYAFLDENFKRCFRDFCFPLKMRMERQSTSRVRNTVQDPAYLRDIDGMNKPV
Assay: κ opioid receptor functional assay, [35S]GTPγS binding (assay C)
Format: biochemical
Settings: read-out: GTPγS EC50
# EC50 per record follows

* CC(C)NC(=O)N1CCN(C(=O)Cc2ccc(Cl)c(F)c2)C2C(N3CCC(O)C3)CCCC21.Cl (centres unmarked) | 10 to 100 nM
* Cl.O=C(Cc1ccc(Cl)c(Cl)c1)N1CCN(C(=O)NCc2ccccc2)[C@H]2CCC[C@H](N3CCCC3)[C@H]21 (racemic) | < 10 nM
* COC(=O)N1CCN(C(=O)Cc2ccc(Cl)c(Cl)c2)[C@@H]2[C@@H](N(C)C)CCC[C@@H]21.Cl (racemic) | < 10 nM

Assay Human opiate κ receptors (Homo sapiens, UniProt P41145), sample CCOC(=O)COC(=O)N1CCN(C(=O)Cc2ccc(Cl)c(Cl)c2)C2C(N3CCCC3)CCCC21.Cl (centres unmarked) , EC50 read: < 10 nM

Assay Human opiate κ receptors (Homo sapiens, UniProt P41145), sample `CN(C)C(=O)C(=O)N1CCN(C(=O)Cc2ccc(Cl)c(Cl)c2)[C@@H]2[C@@H](N3CCCC3)CCC[C@@H]21.Cl` , EC50 read: 10 to 100 nM

Assay Human opiate κ receptors (Homo sapiens, UniProt P41145), sample CC(C)NC(=O)N1CCN(C(=O)Cc2ccc(Cl)c(Cl)c2)C2C(N3CCC(O)C3)CCCC21.Cl (centres unmarked) , EC50 read: < 10 nM

Assay Human opiate κ receptors (Homo sapiens, UniProt P41145), sample `O=C(Cc1ccc(F)c(Cl)c1)N1CCN(S(=O)(=O)Cc2ccon2)[C@H]2CCC[C@H](N3CC[C@H](O)C3)[C@H]21` , EC50 read: < 10 nM

Assay Human opiate κ receptors (Homo sapiens, UniProt P41145), sample `O=C(Cc1ccc(Cl)cc1)N1CCN(S(=O)(=O)Cc2ccon2)[C@H]2CCC[C@H](N3CC[C@H](O)C3)[C@H]21` , EC50 read: < 10 nM

Assay Human opiate κ receptors (Homo sapiens, UniProt P41145), sample COC(=O)N1CCN(C(=O)Cc2ccc(Cl)c(Cl)c2)C2C(N3CCC(C(N)=O)C3)CCCC21.Cl (mixture of isomers) , EC50 read: 10 to 100 nM

Assay Human opiate κ receptors (Homo sapiens, UniProt P41145), sample Cl.O=C(Cc1ccc(Cl)c(Cl)c1)N1CCN(S(=O)(=O)c2cn[nH]c2)C2CCCC(N3CCC(O)C3)C21 (centres unmarked) , EC50 read: < 10 nM

Assay Human opiate κ receptors (Homo sapiens, UniProt P41145), sample Cl.O=C(Cc1ccc(Cl)c(Cl)c1)N1CCN(S(=O)(=O)N2CCCC2)C2CCCC(N3CCC(O)C3)C21 (centres unmarked) , EC50 read: 10 to 100 nM

Assay Human opiate κ receptors (Homo sapiens, UniProt P41145), sample CS(=O)(=O)N1CCN(C(=O)Cc2ccc(Cl)c(F)c2)C2C(N3CCC(O)C3)CCCC21.Cl (centres unmarked) , EC50 read: < 10 nM

Assay Human opiate κ receptors (Homo sapiens, UniProt P41145), sample CCNS(=O)(=O)N1CCN(C(=O)Cc2ccc(Cl)c(Cl)c2)C2C(N3CCC(O)C3)CCCC21.Cl (centres unmarked) , EC50 read: < 10 nM

Assay Human opiate κ receptors (Homo sapiens, UniProt P41145), sample `O=C(Cc1ccc(F)c(F)c1)N1CCN(S(=O)(=O)Cc2ccon2)[C@H]2CCC[C@H](N3CC[C@H](O)C3)[C@H]21` , EC50 read: < 10 nM

###

Target: Human opiate κ receptors (Homo sapiens, UniProt P41145)
Experiment: κ opioid receptor functional assay, [35S]GTPγS binding (assay C)
Assay type: biochemical
Settings: EC50 (nM) [35S]GTPγS binding
outcome measure: EC50 (nM)
Please reply with the bare figure in nM and do not write the unit itself.

Consider the reported EC50 for these molecules:
* O=C(Cc1ccc(Cl)c(Cl)c1)N1CCN(Cc2cccnc2)[C@@H]2CCC[C@H](N3CCCC3)[C@H]21 (racemic) [Y, reference compound] | 34
* O=C(Cc1ccc(Cl)c(Cl)c1)N1CCN(Cc2cnc[nH]2)C2CCCC(N3CCCC3)C21 (racemic) [Example 49] | 6.65
* O=C(Cc1ccc(Cl)c(Cl)c1)N1CCN(Cc2cccnc2)C2CCCC(N3CCCC3)C21 (racemic) [Example 48] | 4.99
* O=C(Cc1ccc(Cl)c(Cl)c1)N1CCN(Cc2ccccc2)[C@@H]2CCC[C@H](N3CCCC3)[C@H]21 (racemic) [H, reference compound] | 29
* O=C(Cc1ccc(Cl)c(Cl)c1)N1CCN(Cc2cccnc2)C2CCCC(N3CCC(O)C3)C21 (mixture of isomers) [AC, reference compound] | 77
* COC(=O)N1CCN(C(=O)Cc2ccc(Cl)c(Cl)c2)C2C(N3CCC(O)C3)CCCC21 (stereo not drawn) [Example 11] | 11.7
* CCC(=O)N1CCN(C(=O)Cc2ccc(Cl)c(Cl)c2)C2C(N3CCCC3)CCCC21 (racemic) [Example 25] | 2.55
* COC(=O)CC(=O)N1CCN(C(=O)Cc2ccc(Cl)c(Cl)c2)C2C(N3CCCC3)CCCC21 (racemic) [Example 36] | 9.74

Assay Human opiate κ receptors (Homo sapiens, UniProt P41145), sample COC(=O)N1CCN(C(=O)Cc2ccc(Cl)c(Cl)c2)C2C(N3CCC(O)C3)CCCC21 (stereo not drawn) [Example 53] , EC50 read: 6.1

Assay Human opiate κ receptors (Homo sapiens, UniProt P41145), sample O=C(Cc1ccc(Cl)c(Cl)c1)N1CCN(Cc2ccccc2)[C@H]2CCC[C@H](N3CCCC3)[C@H]21 (racemic) [Example 15] , EC50 read: 7.39

###

Biological target: Human opiate κ receptors (Homo sapiens, UniProt P41145)
Experiment: κ opioid receptor functional assay, [35S]GTPγS binding (assay C)
Assay type: biochemical
Conditions: read-out: EC50 (nM) [35S]GTPγS binding
# EC50 per record follows

Consider the reported EC50 for these compounds:
• COC(=O)CC(=O)N1CCN(C(=O)Cc2ccc(Cl)c(Cl)c2)C2C(N3CCC(O)C3)CCCC21 (stereo not drawn) [U, reference compound] = 170 nM
• CCC(=O)N1CCN(C(=O)Cc2ccc(Cl)c(Cl)c2)C2C(N3CCCC3)CCCC21 (stereo not drawn) [N, reference compound] = 600 nM

What the record says about COC(=O)N1CCN(C(=O)Cc2ccc(Cl)c(Cl)c2)C2C(N3CCC(O)C3)CCCC21 (stereo not drawn) [S, reference compound] : EC50 is 85 nM

What the record says about COC(=O)CC(=O)N1CCN(C(=O)Cc2ccc(Cl)c(Cl)c2)C2C(N3CCCC3)CCCC21 (stereo not drawn) [P, reference compound] : EC50 is 220 nM

What the record says about O=C(Cc1ccc(Cl)c(Cl)c1)N1CCN(Cc2cnc[nH]2)C2CCCC(N3CCCC3)C21 (stereo not drawn) [AA, reference compound] : EC50 is 56 nM

What the record says about CCOC(=O)N1CCN(C(=O)Cc2ccc(Cl)c(Cl)c2)C2C(N3CCCC3)CCCC21 (racemic) [O, reference compound] : EC50 is 150 nM

###

# activation at 1 µM per record follows
Target: Human opiate κ receptors (Homo sapiens, UniProt P41145)
Assay: κ opioid receptor functional assay, [35S]GTPγS binding (assay C)
Assay type: biochemical
Conditions: 0.5 h, read-out: % activation functional assay at 1 μM
Please reply with the bare figure in % and do not write the unit itself.

Consider the reported activation at 1 µM for these compounds:
- COC(=O)N1CCN(C(=O)Cc2ccc(Cl)c(F)c2)C2C(N3CCCC3)CCCC21 (racemic): 100
- COC(=O)N1CCN(C(=O)Cc2ccc(Cl)c(Cl)c2)C2C(N3CCC(O)C3)CCCC21 (centres unmarked): 92
- COC(=O)N1CCN(C(=O)Cc2ccc(Cl)c(Cl)c2)[C@@H]2[C@H]1CCC[C@@H]2N1CCCC1 (racemic) [Reference compound E, reference compound]: 68
- COC(=O)N1CCN(C(=O)Cc2ccc(Cl)c(Cl)c2)C2C(N3CC=CCC3)CCCC21 (racemic): 96
- CS(=O)(=O)N1CCN(C(=O)Cc2ccc(C(F)(F)F)c(Cl)c2)[C@@H]2[C@@H](N3CC[C@H](O)C3)CCC[C@@H]21: 97

What the record says about O=C(O)CC(=O)N1CCN(C(=O)Cc2ccc(Cl)c(Cl)c2)C2C(N3CCCC3)CCCC21 (racemic) : activation at 1 µM is 87

What the record says about `COC(=O)N1CCN(C(=O)Cc2ccc(C(F)(F)F)c(Cl)c2)[C@@H]2[C@@H](N3CC[C@H](O)C3)CCC[C@@H]21` : activation at 1 µM is 100

What the record says about CCC(=O)N1CCN(C(=O)Cc2ccc(Cl)c(Cl)c2)C2C(N3CCCC3)CCCC21 (racemic) : activation at 1 µM is 102

What the record says about COC(=O)N1CCN(C(=O)Cc2ccc(Cl)c(Cl)c2)[C@@H]2[C@@H](N3CCCC3)CCC[C@@H]21 (racemic) [Example 1] : activation at 1 µM is 109

What the record says about O=C(c1ccco1)N1CCN(C(=O)Cc2ccc(Cl)c(Cl)c2)C2C(N3CCCC3)CCCC21 (racemic) : activation at 1 µM is 96

What the record says about COC(=O)N1CCN(C(=O)Cc2ccc(C(F)(F)F)c(Cl)c2)C2C(N3CCCC3)CCCC21 (racemic) : activation at 1 µM is 118

What the record says about CC(C)C(=O)N1CCN(C(=O)Cc2ccc(Cl)c(Cl)c2)C2C(N3CCCC3)CCCC21 (racemic) : activation at 1 µM is 119

What the record says about O=C(C1CC1)N1CCN(C(=O)Cc2ccc(Cl)c(Cl)c2)C2C(N3CCCC3)CCCC21 (racemic) : activation at 1 µM is 111

What the record says about COC(=O)CNC(=O)N1CCN(C(=O)Cc2ccc(Cl)c(Cl)c2)C2C(N3CCCC3)CCCC21 (racemic) : activation at 1 µM is 113
